- testedTarget: human F508del-CFTR (Homo sapiens, UniProt P13569, DEL508-508)
- Sequence (P13569 with tags, fused parts or gaps DEL508-508): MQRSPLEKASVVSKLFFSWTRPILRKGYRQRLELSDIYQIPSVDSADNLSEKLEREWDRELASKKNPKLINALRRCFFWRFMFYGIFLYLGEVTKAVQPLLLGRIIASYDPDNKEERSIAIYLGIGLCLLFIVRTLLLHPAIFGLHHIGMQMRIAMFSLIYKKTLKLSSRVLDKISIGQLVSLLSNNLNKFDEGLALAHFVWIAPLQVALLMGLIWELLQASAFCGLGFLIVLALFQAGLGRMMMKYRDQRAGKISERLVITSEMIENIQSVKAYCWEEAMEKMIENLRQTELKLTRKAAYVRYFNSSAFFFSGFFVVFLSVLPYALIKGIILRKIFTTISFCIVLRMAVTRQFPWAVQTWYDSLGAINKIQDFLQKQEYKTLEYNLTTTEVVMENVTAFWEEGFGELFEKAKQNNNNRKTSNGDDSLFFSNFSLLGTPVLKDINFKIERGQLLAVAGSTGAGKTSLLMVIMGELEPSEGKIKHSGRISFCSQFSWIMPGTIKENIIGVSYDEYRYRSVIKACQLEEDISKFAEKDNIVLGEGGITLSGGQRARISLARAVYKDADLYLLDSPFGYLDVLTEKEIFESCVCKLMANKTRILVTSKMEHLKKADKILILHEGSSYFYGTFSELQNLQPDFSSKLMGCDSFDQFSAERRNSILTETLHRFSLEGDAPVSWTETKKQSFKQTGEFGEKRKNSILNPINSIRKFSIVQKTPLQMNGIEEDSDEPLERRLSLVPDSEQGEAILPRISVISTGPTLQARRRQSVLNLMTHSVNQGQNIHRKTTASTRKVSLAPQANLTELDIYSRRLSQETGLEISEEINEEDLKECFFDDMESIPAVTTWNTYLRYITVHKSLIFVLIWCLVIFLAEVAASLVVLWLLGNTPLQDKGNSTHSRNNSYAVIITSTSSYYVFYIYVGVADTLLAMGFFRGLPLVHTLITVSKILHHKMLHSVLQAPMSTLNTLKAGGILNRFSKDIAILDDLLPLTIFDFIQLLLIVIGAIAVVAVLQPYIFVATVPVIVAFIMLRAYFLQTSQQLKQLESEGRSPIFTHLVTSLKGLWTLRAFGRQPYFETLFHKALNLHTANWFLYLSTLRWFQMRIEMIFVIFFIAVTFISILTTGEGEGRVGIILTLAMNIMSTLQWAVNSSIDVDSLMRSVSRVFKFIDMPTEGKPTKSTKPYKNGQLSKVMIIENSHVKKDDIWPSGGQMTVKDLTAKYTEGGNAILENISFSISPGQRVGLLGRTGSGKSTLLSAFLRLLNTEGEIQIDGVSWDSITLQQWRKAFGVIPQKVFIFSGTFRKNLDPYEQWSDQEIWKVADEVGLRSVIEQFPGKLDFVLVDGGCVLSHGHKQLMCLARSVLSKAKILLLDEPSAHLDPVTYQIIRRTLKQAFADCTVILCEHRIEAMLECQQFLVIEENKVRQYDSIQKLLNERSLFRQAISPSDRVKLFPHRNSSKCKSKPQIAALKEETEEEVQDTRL
- measurementNotes: F508del-CFTR cell surface expression (corrector activity), DiscoveRx ß-galactosidase complementation chemiluminescence assay in recombinant U2OS cell line
- setupConditions: U2OS, in relation to Emax of corrector lumacaftor (=100%); arithmetic mean values
The entries below come with measured Emax values attached.
Record the value in %, omitting the unit from your answer.

# input If you can, please state the reported Emax value of COCCN1CCN2C(=O)[C@H](CC(C)C)N(C)C(=O)C[C@@H](C(=O)NCCc3cccc(OC(F)F)c3)NC(=O)c3c(cnc4ccccc34)OC[C@@H](Cc3ccccc3)NC(=O)[C@H]2C1 .
# output 251

# input What value of measured Emax is listed for CC(C)C[C@H]1C(=O)N(C)CC(=O)N[C@H](Cc2ccccc2)COc2ccccc2C(=O)N[C@H](C(=O)NCCc2ccc3c(c2)OCCO3)CC(=O)N1C ?
# output 104

# input Give its Emax value. Item: COc1cccc(CCNC(=O)[C@@H]2CC(=O)N(C)[C@@H](CC(C)C)C(=O)N3CCN(S(=O)(=O)c4ccccn4)C[C@@H]3C(=O)N[C@H](Cc3ccccc3)COc3ccc4ccccc4c3C(=O)N2)c1
# output 213

###

Parameter Emax: see the listing below.
- testedTarget: human F508del-CFTR (Homo sapiens, UniProt P13569, DEL508-508)
- measurementNotes: F508del-CFTR cell surface expression (corrector activity), DiscoveRx ß-galactosidase complementation chemiluminescence assay in recombinant U2OS cell line
- setupConditions: in relation to Emax of corrector lumacaftor (=100%); arithmetic mean values
Report only the number, with the unit % understood.

Example entries begin here.
# compound, Emax [%]
data = [
    ("COc1nccc2c1C(=O)NC(C(=O)NCCc1cc(C3CC3)no1)CC(=O)N(C)C(CC(C)C)C(=O)N(C)C(CC1CCC(F)(F)CC1)C(=O)NC(Cc1ccccc1)CO2 (single isomer, unassigned) [Example 661]", 247),
    ("COc1nccc2c1C(=O)NC(C(=O)NCCc1cc(C3CC3)no1)CC(=O)N(C)C(CC(C)C)C(=O)N(C)C(CC1CCC(F)(F)CC1)C(=O)NC(Cc1ccccc1)CO2 (single isomer, unassigned) [Example 662]", 297),
]

# input Record request: Emax value, item COc1cc2c(cn1)OC[C@@H](Cc1ccccc1)NC(=O)[C@H]1CCCCN1C(=O)[C@H](CC(C)C)N(C)C(=O)C[C@@H](C(=O)NCCc1cc(C3CC3)on1)NC2=O [Example 526]
# output 167

###

Quick list: pEC50 per entry.
- testedTarget: human F508del-CFTR (Homo sapiens, UniProt P13569, DEL508-508)
- measurementNotes: F508del-CFTR cell surface expression (corrector activity), DiscoveRx ß-galactosidase complementation chemiluminescence assay in recombinant U2OS cell line;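 note: U2OS cells co-expressing ProLink-tagged F508del-CFTR and a membrane-anchored enzyme acceptor, where more surface CFTR restores β-galactosidase activity measured by chemiluminescence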
- setupConditions: EC50, F508del-CFTR cell surface expression, U2OS cell line, 16h compound incubation; geomean values
Keep it numeric: pEC50 is minus log10 of the concentration in mol/L.

# example entries with known answers
# testSmiles, pEC50
rows = [
    ("CC(C)C[C@H]1C(=O)N(C)C2(CC2)C(=O)N[C@H](Cc2ccccc2)COc2cnc3ccc(F)cc3c2C(=O)N[C@H](C(=O)NCCc2c(F)cccc2F)CC(=O)N1C", 6.96),
    ("CC(C)C[C@H]1C(=O)N(C)CC(=O)N[C@H](Cc2ccccc2)COc2ccc3c(c2C(=O)N[C@H](C(=O)NCCc2ccc4c(c2)OCO4)CC(=O)N1C)OCO3", 6.09),
]

API: the following record is the query input.
# input Query (compound): COc1cccc2c1C(=O)N[C@H](C(=O)NCCc1cnccn1)CC(=O)N(C)[C@@H](CC(C)C)C(=O)N(CCC1CCCCC1)CC(=O)N[C@H](Cc1ccccc1)CO2 ; field requested: pEC50
# output 6.41

These measurements were taken from patent US20240208992A1.
